- Target system: GlcNAc(b1-3)Gal(b1-4)GlcNAc(b1-3)Gal(b1-4)GlcNAc(b1-2)[GlcNAc(b1-3)Gal(b1-4)GlcNAc(b1-3)Gal(b1-4)GlcNAc(b1-6)]Man(a1-6)[GlcNAc(b1-3)Gal(b1-4)GlcNAc(b1-3)Gal(b1-4)GlcNAc(b1-2)Man(a1-3)]Man(b1-4)GlcNAc(b1-4)[Fuc(a1-6)]GlcNAc
- Assay summary: glycan array binding signal (z-score within array); higher = stronger binding
- Measurement setup: glycan notation: IUPAC condensed, linker removed
About 410 targets per protein were measured; listed, in parts, are those with the strongest signals and a random draw of the rest.
Returns Y if the recorded glycan array binding signal (z-score) is greater than or equal to 0.08, and N otherwise.

• Epa19 (Candida glabrata) (protein) MGSSHHHHHHSSGLVPRGSHMASSKDPTRFPIGCSPQVLKTQPGLAVKLYSYGHPVPGCSYITYQYPDFPRSGYKKERKLADITGVNGKIDIDLKPNDPCRVLTGHLPSNYNYPDTLTYTNFTMILYGYFQPKVTGYHTFNLEADDLLFMNLGAGNAFDCCKAESTLDNFGNYQSYSLWGSDYAKANITVFLVSGVYYPIRLFYVNRDNNAVIDFSFTTEFDKEKVHDFTSYFFSASDGEQCPGSV = Y

Does the reported glycan array binding signal (z-score) for Pwp6 (Candida glabrata) (protein) MGSSHHHHHHSSGLVPRGSHMASANLPKLTNICQIPDNVKKTSGFKGEIRRIGLFPPGGDYTYLLKFPSTGSTASDTISLTTKPQLSTSGWFPSLFGHTYFIKADLLVYMVAYFVPTETGEYTFKLVNSDDAAVMYVGNPSAFPCGSIDTWPEPRKEDINVCDKISASTKLYMEKGLAYPVRLVWYNGGGDGQFNAQFIDPSGTTHTDWNGYVWQYDACTDCDYK fall at or above the 0.08 mark?
Y

Does the reported glycan array binding signal (z-score) for BabA (Helicobacter pylori), O52269_HELPY (protein) AEDDGFYMSAGYQIGEAAQMVKNTKGIQELSDNYENLSNLLTRYSTLNTLIKLSADPSAVNAARENLGASAKNLIGDTKNSPAYQAVLLAINAAVGFWNVVGYVTQCGGNANGQKSTSSTTIFNNEPGYRSTSITCSLNGHMPGYYGPMSIENFKKLNEAYQILQTALKNGLPALKENNGTVNVTYSYTCSGEGNDNCSLQTTGVTNQNNGTKTETQTIDGKSVTTTISSKVVDSQ fall at or above the 0.08 mark?
Y

Does the reported glycan array binding signal (z-score) for Epa23 (Candida glabrata) (protein) MGSSHHHHHHSSGLVPRGSHMIPNPFEGTINNFPSGCSPNHGLYNRGLTMELYNYSYIHPQSIQSYFNTSTLKKMEKGQCWDPSYLDVNYPRTGYKTHNRFAKVNGIDGILDFEFNPTRSCVPSKGQLPQNYNYPLQFTLSNFTMLLYGYFKPKVTAKHTFTIFADDLLFLNFGAGNAFDCCQQQDTIDDFGNYQAYALWGSDTQQNTLTVNLDANIYYPIRMFYNNRDFKGALNMYFTTDESNTKINDFSGYLFNIPDSSEGCPAHISYETECGNVSG fall at or above the 0.08 mark?
N
